Biological target: T1, recombinant human galectin-10, TEV-cleaved (human, UniProt Q05315 1-142)
T1 sequence: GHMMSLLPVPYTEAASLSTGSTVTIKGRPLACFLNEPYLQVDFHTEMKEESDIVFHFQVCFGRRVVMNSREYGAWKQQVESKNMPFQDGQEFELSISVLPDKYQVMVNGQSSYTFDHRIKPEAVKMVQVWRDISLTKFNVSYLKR
Test: cell-based or functional assay
parameter_measured: 90% crystal dissolution (min), 50 uM

Solved cases below.
binder	parameter_measured	result
11F02 Fab (Fab, V domains shown, Fab with human CH1 (including part of the hinge region) and human lambda constant domain; also called 11F02 hFab) VH: ELQVVESGGGLVQPGGSLRLSCAASGFTFSTNYMNWVRQAPGKGLEWVSGITSHGARTYYADSVKGRFTISRDNSKNTLYLQMNSLKPEDTALYYCARTDHASLDAWGQGTLVTVSS VL: QTVVTQEPSLSVSPGGTVTLTCGLSSGSVTSSNYPGWYQQKPGQAPRTLIYNTNSRYSGVPNRFSGSISGNKAALTITGAQPEDEADYYCALYMGSSSYNTVFGGGTHLTVL	90% crystal dissolution (min), 50 uM	> 120 min
7B07 mouse IgG1 (antibody, V domains shown, VH and VL cloned in frame with mouse IgG1 constant domains; also called 7B07 mIgG1) VH: QVQLVESGGGLVQPGGSLRLSCAASGFTFRSYDMSWVRQAPGKGPEWVSAIKNGGGITYYADSVKGRFTISRDNAKNTLYLQMNSLKPEDTAVYYCATTHGIGTLGFGSWGQGTQVTVSS VL: SYELTQSASVSVALTQTAKITCDGNNIGSKSAQWYQQKPGQAPALVIYADEYRPEGIPERFSGSNSGNTATLIISGAQAEDEADYYCQVWDGSAAVFGRGTHLTVL	90% crystal dissolution (min), 50 uM	93 min
7B07 Fab (Fab, V domains shown, Fab with human CH1 (including part of the hinge region) and human lambda constant domain; also called 7B7; 7B07 hFab) VH: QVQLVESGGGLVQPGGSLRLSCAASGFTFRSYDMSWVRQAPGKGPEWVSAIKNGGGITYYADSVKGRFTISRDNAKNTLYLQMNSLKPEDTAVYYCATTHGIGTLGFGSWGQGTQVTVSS VL: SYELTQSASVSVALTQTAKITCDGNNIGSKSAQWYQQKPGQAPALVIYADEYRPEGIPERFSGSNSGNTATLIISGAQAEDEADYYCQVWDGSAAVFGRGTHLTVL	90% crystal dissolution (min), 50 uM	54.1 min

// moving on: another record for 90% crystal dissolution (min), 50 uM
90% crystal dissolution (min), 50 uM for 11F12 Fab (Fab, V domains shown, Fab with human CH1 (including part of the hinge region) and human lambda constant domain; also called 11F12 hFab) VH: QVQLQESGGGLVQPGGSLRLSCAASGFTFSTNYMNWVRQAPGKGLEWVSGITSGGGRTYYADSVKGRFTISRDNAKNTLYLQMNSLKPEDTALYYCARTDHAWLDAWGQGTLVTVSS VL: HSAVTQPPSVSGTLGKTVTISCAGTSSDVGYGNYVSWYQHLPGTAPKLLIYAVSTRASGVPDRFSGSKSGNTASLTISGLQSEDEGDYYCASYSVRNNVVFGGGTRLTVL ? > 120 min
